Values were extracted from patent US8022056B2.

Each entry below carries its recorded IC50.
- study system: GSK3
- experimental protocol: Kinase inhibition under standard conditions, GSK3
- Assay type: biochemical
Give just the numeric value; nM need not be written.

compound="CNC(=O)[C@@]1(N)CC2CC1n1c3ccccc3c3c4c(c5c6ccccc6n2c5c31)C(=O)NC4 (some centres unmarked)" study_system=GSK3 reported_property=IC50 readout_unit=nM result_number=350

Let me know recorded IC50 for "CNC(=O)[C@@]1(N)C[C@H]2O[C@]1(C)n1c3ccccc3c3c4c(c5c6ccccc6n2c5c31)C(=O)NC4" , thanks.
1230

Let me know recorded IC50 for CNC(=O)[C@@]1(O)CC2CC1n1c3ccccc3c3c4c(c5c6ccccc6n2c5c31)C(=O)NC4=O (some centres unmarked) , thanks.
37

Let me know recorded IC50 for CNC(=O)[C@@]1(O)CC2CC1n1c3ccccc3c3c4c(c5c6ccccc6n2c5c31)C(=O)NC4 (some centres unmarked) , thanks.
400
